IC50 for assorted compounds
target_or_test_system: Nicotinic acetylcholine receptor alpha-1/beta-1 (Homo sapiens, UniProt P02708+P11230)
Sequence (P02708 whole entry): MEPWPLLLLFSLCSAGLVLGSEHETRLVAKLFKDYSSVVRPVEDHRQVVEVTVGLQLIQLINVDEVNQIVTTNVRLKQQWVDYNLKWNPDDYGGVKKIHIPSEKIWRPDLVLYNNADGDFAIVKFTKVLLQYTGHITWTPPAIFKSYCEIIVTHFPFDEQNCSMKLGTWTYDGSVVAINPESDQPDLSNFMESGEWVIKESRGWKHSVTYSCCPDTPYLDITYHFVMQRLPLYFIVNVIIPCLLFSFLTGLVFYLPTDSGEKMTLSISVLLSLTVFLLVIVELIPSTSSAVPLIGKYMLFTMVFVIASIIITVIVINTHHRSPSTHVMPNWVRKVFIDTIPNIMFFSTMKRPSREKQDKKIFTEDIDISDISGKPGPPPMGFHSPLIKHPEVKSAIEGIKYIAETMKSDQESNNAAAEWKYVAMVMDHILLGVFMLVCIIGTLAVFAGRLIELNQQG
Sequence (P11230 whole entry): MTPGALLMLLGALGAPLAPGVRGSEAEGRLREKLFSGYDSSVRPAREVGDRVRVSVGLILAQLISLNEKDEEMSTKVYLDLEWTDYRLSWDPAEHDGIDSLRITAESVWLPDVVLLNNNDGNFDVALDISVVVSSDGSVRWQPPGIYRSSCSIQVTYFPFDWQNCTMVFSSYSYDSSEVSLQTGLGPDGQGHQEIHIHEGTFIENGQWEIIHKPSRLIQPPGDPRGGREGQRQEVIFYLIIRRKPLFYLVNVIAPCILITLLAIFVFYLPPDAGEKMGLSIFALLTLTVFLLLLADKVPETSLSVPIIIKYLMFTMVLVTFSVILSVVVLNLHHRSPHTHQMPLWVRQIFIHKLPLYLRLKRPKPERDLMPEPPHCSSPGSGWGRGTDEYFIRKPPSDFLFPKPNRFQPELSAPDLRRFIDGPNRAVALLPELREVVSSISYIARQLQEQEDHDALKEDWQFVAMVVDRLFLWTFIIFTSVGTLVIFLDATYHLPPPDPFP
protocol_description: Antagonist activity at human alpha1beta1 nAChR in HEK293 cells assessed as inhibition of carbamylcholine-induced radiolabeled Rb ion efflux
Write the value in µM as a bare number.

[
  {
    "smiles_entry": "C[C@@H]1NC(C)(C)CO[C@@]1(O)c1cccc(Br)c1",
    "value_type": "IC50",
    "measured_result": 7.3
  }
]

Note: attention shifts to another entry.
Problem: Determine from records and report IC50 for C[C@@H]1N(C)C(C)(C)CO[C@@]1(O)c1cccc(Cl)c1
Result: 21
